protocol.summary: Oral bioavailability and plasma kinetics in mice (serum concentration)
Type: in vivo, Balb/c mice
applied.conditions: female, Balb/c, mouse, serum, po, 7.5 mg/kg, 7.5 mg/kg oral, sample at 40 minutes, read-out: c in the serum 1st analysis
Where a name gives a salt, the structure may show the parent alone.
readout.name: concentration at 40 min (µg/mL)

# compound, readout.name, observed
measured = [
    ("C[C@@H](C(=O)NCc1ccc(NC(=N)N)cc1)N(C)C(=O)[C@@H](CO)NS(=O)(=O)Cc1ccc(Cl)cc1", "concentration at 40 min", 0),
    ("N=C(N)Nc1ccc(CNC(=O)[C@H](CCc2ccccc2)NC(=O)C(CO)NS(=O)(=O)Cc2ccccc2)cc1 (some centres unmarked) [WX-550, hydrochloride]", "concentration at 40 min", 0),
]

====

protocol.summary: Oral bioavailability and plasma kinetics in mice (serum concentration)
Format: in vivo, Balb/c mice
applied.conditions: female, Balb/c, mouse, serum, po, 30 mg/kg, 30 mg/kg oral, sample at 60 minutes, read-out: c in the serum 2nd analysis
Structures can show the parent of a compound that is named as a salt.
readout.name: concentration at 60 min (ng/mL)

# compound, concentration at 60 min / ng/mL
records = [
    ("N=C(N)Nc1ccc(CNC(=O)CNC(=O)[C@@H](CO)NS(=O)(=O)Cc2ccccc2)cc1 [WX-508, hydrochloride]", 90),
    ("N=C(N)Nc1ccc(CNC(=O)CNC(=O)C(CO)NS(=O)(=O)Cc2cccc([N+](=O)[O-])c2)cc1 (stereo not shown) [WX-C316, hydrochloride]", 500),
]

I: N=C(N)Nc1ccc(CNC(=O)CNC(=O)C(CO)NS(=O)(=O)Cc2ccc(Cl)cc2)cc1 (stereo not shown) [WX-C340, hydrochloride]
II: N=C(N)Nc1ccc(CNC(=O)CNC(=O)C(CO)NS(=O)(=O)Cc2cccc(Cl)c2)cc1 (stereo not shown) [WX-C318, hydrochloride]
Of I and II , which carries the smaller reported concentration at 60 min figure? Let me know the label of the one you choose.
II

====

protocol.summary: Oral bioavailability and plasma kinetics in mice (serum concentration)
Type: in vivo, Balb/c mice
applied.conditions: female, Balb/c, mouse, serum, po, 30 mg/kg, 30 mg/kg oral, sample at 20 minutes, read-out: c in the serum 2nd analysis
Counter-ions that a name gives are not always drawn.
readout.name: concentration at 20 min (ng/mL)

These recorded examples may help you get a feel for the data.
# compound, unit.label, concentration at 20 min
records = [
    ("N=C(N)Nc1ccc(CNC(=O)CNC(=O)C(CO)NS(=O)(=O)Cc2cccc([N+](=O)[O-])c2)cc1 (stereo not shown) [WX-C316, hydrochloride]", "ng/mL", 600),
    ("N=C(N)Nc1ccc(CNC(=O)CNC(=O)C(CO)NS(=O)(=O)Cc2ccc(Cl)cc2)cc1 (stereo not shown) [WX-C340, hydrochloride]", "ng/mL", 500),
]

1: N=C(N)Nc1ccc(CNC(=O)CNC(=O)[C@@H](CO)NS(=O)(=O)Cc2ccccc2)cc1 [WX-508, hydrochloride]
2: N=C(N)Nc1ccc(CNC(=O)CNC(=O)C(CO)NS(=O)(=O)Cc2cccc(Cl)c2)cc1 (stereo not shown) [WX-C318, hydrochloride]
Hey, between 1 and 2 which has a smaller measured concentration at 20 min? // caller expects the label of the chosen entry
2
